Sourced from the RNAGym collection of RNA variant scans (doi:10.7554/elife.90254)

B1: OR4K15 (parent)
chain: GUUAACGGUCAUAGGCCAUGGAAACUAGGAGCACCAUUUCGCUGCCAGUGAAGAAAUGAACAAAGAAAAUCUGGGCCAGGCAGGCAUCAAAAGAAAUAGUCUUGCGCUCAACCAGAAAGUCUGUAAUCAUUUUAAGGGUA

# Variants of: B1
# measurement_protocol: self-cleavage, relative activity (ratio to wild type); higher = more cleavage; in vitro, sequencing; the parent is a self-cleaving ribozyme
Response key: yes means self-cleavage >= 1; no means self-cleavage < 1.

variant_notation="U9A A98G" class_name=no
variant_notation="A52U U103C" class_name=yes
variant_notation="C45U A86U" class_name=yes
variant_notation="G74A U127C" class_name=no
variant_notation="G28C A64G" class_name=no
variant_notation="A22U U72C" class_name=no
variant_notation="G8A A55G" class_name=yes
variant_notation="A47G C85U" class_name=no
variant_notation="U122A U133A" class_name=yes
variant_notation="A62C A118G" class_name=yes
variant_notation="U122C A129U" class_name=no
variant_notation="U72C A140G" class_name=no
variant_notation="A116U A118G" class_name=no
variant_notation="G1A U37C" class_name=yes
variant_notation="A60G A94G" class_name=yes
variant_notation="A11G A96C" class_name=no
variant_notation="U122C A126U" class_name=yes
variant_notation="C6U G80A" class_name=no
variant_notation="U19C A22G" class_name=yes
variant_notation="U19G C105G" class_name=no
variant_notation="C35U A95G" class_name=yes
